Test system: Winter Wheat “Hereward”
ASSAY INFO: Test 1B glasshouse assay, post-emergence herbicidal activity against cereal crops
Format: in vivo
CONDITION INFO: herbicide 30 g/ha, cloquintocet-mexyl 50 g/ha
QUANTITY NAME: Percentage Phytotoxicity Winter Wheat “Hereward” (%)

| COMPOUND | REPORTED VALUE |
| --- | --- |
| Cc1cc(C)c(C2C(=O)C[C@@H](CCNC(=O)c3cccc(F)n3)C2=O)c(C)c1 (stereo partly drawn) [Compound A112] | 33 |
| Cc1cc(C)c(C2C(=O)C[C@H](CCNC(=O)c3cccc(F)n3)C2=O)c(C)c1 (stereo partly drawn) [Compound A113] | 0 |
| Cc1cc(C)c(C2C(=O)CC(CCNC(=O)c3cccc(F)n3)C2=O)c(C)c1 (racemic) [Compound A89] | 10 |
| Cc1cc(C)c(C2C(=O)C[C@@H](CCNC(=O)c3ccc(Br)cn3)C2=O)c(C)c1 (stereo partly drawn) [Compound A120A] | 53 |
| Cc1cc(C)c(C2C(=O)CC(CCNC(=O)c3ccc(Br)cn3)C2=O)c(C)c1 (racemic) [Compound A120] | 38 |
| Cc1cc(C)c(C2C(=O)C[C@H](CCNC(=O)c3cc(Cl)ccn3)C2=O)c(C)c1 (stereo partly drawn) [Compound A128] | 0 |
| Cc1cc(C)c(C2C(=O)C[C@@H](CCNC(=O)c3cc(Cl)ccn3)C2=O)c(C)c1 (stereo partly drawn) [Compound A127] | 0 |
| Cc1cc(C)c(C2C(=O)C[C@H](CCNC(=O)c3ccc(Br)cn3)C2=O)c(C)c1 (stereo partly drawn) [Compound A120B] | 7 |
| Cc1cc(C)c(C2C(=O)CC(CCNC(=O)c3cc(Cl)ccn3)C2=O)c(C)c1 (racemic) [Compound A23] | 0 |

###

System: Winter Wheat “Hereward”
ASSAY INFO: Test 1B glasshouse assay, post-emergence herbicidal activity against cereal crops
Format: in vivo
CONDITION INFO: herbicide 60 g/ha, cloquintocet-mexyl 0 g/ha
QUANTITY NAME: Percentage Phytotoxicity Winter Wheat “Hereward” (%)

| COMPOUND | REPORTED VALUE |
| --- | --- |
| Cc1cc(C)c(C2C(=O)CC(CCNC(=O)c3ccc(Br)cn3)C2=O)c(C)c1 (racemic) [Compound A120] | 68 |
| Cc1cc(C)c(C2C(=O)C[C@@H](CCNC(=O)c3ccc(Br)cn3)C2=O)c(C)c1 (stereo partly drawn) [Compound A120A] | 73 |
| Cc1cc(C)c(C2C(=O)C[C@H](CCNC(=O)c3cc(Cl)ccn3)C2=O)c(C)c1 (stereo partly drawn) [Compound A128] | 8 |
| Cc1cc(C)c(C2C(=O)C[C@H](CCNC(=O)c3cccc(F)n3)C2=O)c(C)c1 (stereo partly drawn) [Compound A113] | 3 |
| Cc1cc(C)c(C2C(=O)C[C@H](CCNC(=O)c3ccc(Br)cn3)C2=O)c(C)c1 (stereo partly drawn) [Compound A120B] | 58 |
| Cc1cc(C)c(C2C(=O)C[C@@H](CCNC(=O)c3cccc(F)n3)C2=O)c(C)c1 (stereo partly drawn) [Compound A112] | 85 |
| Cc1cc(C)c(C2C(=O)CC(CCNC(=O)c3cccc(F)n3)C2=O)c(C)c1 (racemic) [Compound A89] | 75 |
| Cc1cc(C)c(C2C(=O)C[C@@H](CCNC(=O)c3cc(Cl)ccn3)C2=O)c(C)c1 (stereo partly drawn) [Compound A127] | 65 |
| Cc1cc(C)c(C2C(=O)CC(CCNC(=O)c3cc(Cl)ccn3)C2=O)c(C)c1 (racemic) [Compound A23] | 68 |
